B1: Histidine--tRNA ligase, cytoplasmic, residues 8 to 45; numbered along this chain, P12081 (parent)
chain: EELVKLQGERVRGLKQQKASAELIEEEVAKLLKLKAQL

Variants of: B1
procedure.text: abundance fitness (aPCA) (normalised: wild type 0, dead -1); higher = more abundant; growth selection in yeast, the domain comes from the species named
particulars: Homo sapiens
readout: abundance fitness

[
  {
    "mutation.annotation": "K15A",
    "readout": "abundance fitness",
    "measured.value": -0.107
  },
  {
    "mutation.annotation": "V4G",
    "readout": "abundance fitness",
    "measured.value": -0.227
  },
  {
    "mutation.annotation": "R12L",
    "readout": "abundance fitness",
    "measured.value": -0.034
  },
  {
    "mutation.annotation": "I24A",
    "readout": "abundance fitness",
    "measured.value": -0.027
  },
  {
    "mutation.annotation": "E2W",
    "readout": "abundance fitness",
    "measured.value": -0.97
  },
  {
    "mutation.annotation": "E9V",
    "readout": "abundance fitness",
    "measured.value": -0.653
  },
  {
    "mutation.annotation": "V4K",
    "readout": "abundance fitness",
    "measured.value": -0.568
  },
  {
    "mutation.annotation": "E25L",
    "readout": "abundance fitness",
    "measured.value": -0.484
  },
  {
    "mutation.annotation": "S20Q",
    "readout": "abundance fitness",
    "measured.value": -0.057
  },
  {
    "mutation.annotation": "G13F",
    "readout": "abundance fitness",
    "measured.value": 0.079
  },
  {
    "mutation.annotation": "S20H",
    "readout": "abundance fitness",
    "measured.value": -0.128
  },
  {
    "mutation.annotation": "K15S",
    "readout": "abundance fitness",
    "measured.value": -0.184
  },
  {
    "mutation.annotation": "K15D",
    "readout": "abundance fitness",
    "measured.value": -0.271
  },
  {
    "mutation.annotation": "I24N",
    "readout": "abundance fitness",
    "measured.value": -0.137
  },
  {
    "mutation.annotation": "E1D",
    "readout": "abundance fitness",
    "measured.value": -0.377
  },
  {
    "mutation.annotation": "E27T",
    "readout": "abundance fitness",
    "measured.value": -0.798
  },
  {
    "mutation.annotation": "K18T",
    "readout": "abundance fitness",
    "measured.value": -0.083
  },
  {
    "mutation.annotation": "K15T",
    "readout": "abundance fitness",
    "measured.value": 0.001
  },
  {
    "mutation.annotation": "L32P",
    "readout": "abundance fitness",
    "measured.value": 0.098
  },
  {
    "mutation.annotation": "A29L",
    "readout": "abundance fitness",
    "measured.value": -0.462
  },
  {
    "mutation.annotation": "L14C",
    "readout": "abundance fitness",
    "measured.value": -0.119
  },
  {
    "mutation.annotation": "K30Q",
    "readout": "abundance fitness",
    "measured.value": -0.102
  }
]

The reported measurements were obtained from the Human Domainome abundance scans (Beltran et al. 2025).
